Reported S. aureus MIC (ppm) by item:
tested on: Staphylococcus aureus ATCC #6538; assay: Minimum Inhibitory Concentration (MIC) Assay with Minimum Biocidal Concentration (MBC); assay type: cell-based; details: Table 1.5; solvent DMSO; >=50% inhibition, 24 hrs at 35° C.
Experimental Endpoint: S. aureus MIC (ppm)

Compound | Experimental Endpoint | Unit Symbol | Numeric Result
CCCCCCCCCC(O)CC(=O)O (racemic) [DL-β-Hydroxylauric acid, reference compound] | S. aureus MIC (ppm) | ppm | 325
CCCCCCCCCCCCCC(O)CC(=O)O (racemic) [DL-β-Hydroxypalmitic acid, reference compound] | S. aureus MIC (ppm) | ppm | 102
CCCCCC(CC(=O)O)OC1O[C@@H](C)[C@H](O)[C@@H](O)[C@H]1O (stereo partly shown) | S. aureus MIC (ppm) | ppm | 625
CCCCCCCCCCCC(O)CC(=O)O (racemic) [DL-β-Hydroxymyristic acid, reference compound] | S. aureus MIC (ppm) | ppm | 365

----------
System: Staphylococcus aureus ATCC #6538
Test: Minimum Inhibitory Concentration (MIC) Assay with Minimum Biocidal Concentration (MBC)
Format: cell-based
Settings: Staphylococcus aureus, ATCC6538, 24 h; Table 5; solvent DMSO; read-out: S. aureus MBC (ppm)
Procedure: The Minimum Inhibitory Concentration (MIC) Assay is a 96-well high throughput method that determines the minimum concentration of an active required to inhibit the growth of microorganisms. Organism preparation: Compounds were evaluated against the following microorganisms: Staphylococcus aureus ATCC #6538 (American Type Culture Collection, Manassas, Virginia, USA). […] The MBC was determined as the most dilute concentration with no visible growth.

Compound | Target System | Result Qualifier | MBC (µg/mL)
CCCCCCCC(CC(=O)NCCO)O[C@@H]1O[C@@H](C)[C@H](O)[C@@H](O)[C@H]1O[C@@H]1O[C@@H](C)[C@H](O)[C@@H](O)[C@H]1O (some centres unmarked) | Staphylococcus aureus ATCC #6538 | > | 2090
CCCCCCCC(CC(=O)N(C)OC)O[C@@H]1O[C@@H](C)[C@H](O)[C@@H](O)[C@H]1O[C@@H]1O[C@@H](C)[C@H](O)[C@@H](O)[C@H]1O (some centres unmarked) | Staphylococcus aureus ATCC #6538 | > | 2090
CCCCCCCC(CC(=O)NCCO[Si](C)(C)C(C)(C)C)O[C@@H]1O[C@@H](C)[C@H](O)[C@@H](O)[C@H]1O[C@@H]1O[C@@H](C)[C@H](O)[C@@H](O)[C@H]1O (some centres unmarked) | Staphylococcus aureus ATCC #6538 | = | 637
CCCCCCCC(CC(=O)OC)O[C@@H]1O[C@@H](C)[C@H](O)[C@@H](O)[C@H]1O (some centres unmarked) | Staphylococcus aureus ATCC #6538 | = | 1400
CCCCCCCC(CC(=O)NC)O[C@@H]1O[C@@H](C)[C@H](O)[C@@H](O)[C@H]1O[C@H]1O[C@@H](C)[C@@H](O)[C@H](O)[C@@H]1O (some centres unmarked) | Staphylococcus aureus ATCC #6538 | > | 1970

----------
test system: Staphylococcus aureus ATCC #6538; experiment: Minimum Inhibitory Concentration (MIC) Assay with Minimum Biocidal Concentration (MBC); format: cell-based; conditions: Staphylococcus aureus, ATCC6538, 24 h; Table 5; solvent DMSO; read-out: S. aureus MBC (ppm)

Compound | MBC
CCCCCCCC(CC(=O)NC1CCCCC1)O[C@@H]1O[C@@H](C)[C@H](O)[C@@H](O)[C@H]1O[C@@H]1O[C@@H](C)[C@H](O)[C@@H](O)[C@H]1O (stereo partly drawn) | > 2250 µg/mL
CCCCCCCC(CC(=O)N(C)C)O[C@@H]1O[C@@H](C)[C@H](O)[C@@H](O)[C@H]1O[C@@H]1O[C@H](C)C(O)[C@@H](O)[C@H]1O (stereo partly drawn) | > 508 µg/mL
CCCCCCCC(CC(=O)N(CCCC)CCCC)O[C@@H]1O[C@@H](C)[C@H](O)[C@@H](O)[C@H]1O[C@@H]1O[C@@H](C)[C@H](O)[C@@H](O)[C@H]1O (stereo partly drawn) | 296 µg/mL

----------
System: Staphylococcus aureus ATCC #6538
Experiment: Minimum Inhibitory Concentration (MIC) Assay with Minimum Biocidal Concentration (MBC)
Type: cell-based
Conditions: Staphylococcus aureus, ATCC6538, 24 h; Table 5; solvent DMSO; read-out: S. aureus MBC (ppm)
Description: The Minimum Inhibitory Concentration (MIC) Assay is a 96-well high throughput method that determines the minimum concentration of an active required to inhibit the growth of microorganisms. Organism preparation: Compounds were evaluated against the following microorganisms: Staphylococcus aureus ATCC #6538 (American Type Culture Collection, Manassas, Virginia, USA). […] The MBC was determined as the most dilute concentration with no visible growth.

Molecule | MBC
CCCCCCCC(CC(=O)NCC(CC)CCCC)O[C@@H]1O[C@@H](C)[C@H](O)[C@@H](O)[C@H]1O[C@@H]1O[C@@H](C)[C@H](O)[C@@H](O)[C@H]1O (stereo partly drawn) | 592 µg/mL

----------
Reported S. aureus MBC (ppm) by item:
tested on: Staphylococcus aureus ATCC #6538; assay: Minimum Inhibitory Concentration (MIC) Assay with Minimum Biocidal Concentration (MBC); assay type: cell-based; conditions: Table 1.5; solvent DMSO; no visible growth

Molecule | Result Qualifier | S. aureus MBC (ppm)
CCCCCCCCCC(O)CC(=O)O (racemic) [DL-β-Hydroxylauric acid, reference compound] | = | 650
CCCCCCCCCCCCCC(O)CC(=O)O (racemic) [DL-β-Hydroxypalmitic acid, reference compound] | = | 204
CCCCCCCCCCCC(O)CC(=O)O (racemic) [DL-β-Hydroxymyristic acid, reference compound] | = | 731
CCCCCC(CC(=O)O)OC1O[C@@H](C)[C@H](O)[C@@H](O)[C@H]1O (stereo partly shown) | > | 10000
